Experiment: Oral bioavailability and brain penetration in mice
Type: in vivo
Conditions: male, OF1/IC, mouse, plasma, po, 30 μmol/kg p.o., 4 hour, read-out: Plasma (pmoles/ml ± SD)
Method: Compounds were orally (30 μmol/kg) administered. Male mice (30-35g, OF1/ICstrain) were sacrificed at indicated time points after oral administration. Trunk-blood was collected in EDTA-containing tubes and the brain was removed and immediately frozen on dry ice. To 100 μl plasma 10 μl internal standard (1.0 pmol of a compound with solubility and ionization properties similar to test compounds) was added and extracted three times with 500 μl dichloromethane. […]
parameter_measured: concentration at 4 h

Lookup: Given the molecule `C[C@H](OC(=O)N[C@@H]1CN2CCC1CC2)c1ccccc1F` , what is its reported concentration at 4 h?
Found: 85 pmol/mL

====

Test: Oral bioavailability and brain penetration in mice
Type: in vivo
Conditions: male, OF1/IC, mouse, plasma, po, 30 μmol/kg p.o., 0.5 hour, read-out: Plasma (pmoles/ml ± SD)
Procedure: Compounds were orally (30 μmol/kg) administered. Male mice (30-35g, OF1/ICstrain) were sacrificed at indicated time points after oral administration. Trunk-blood was collected in EDTA-containing tubes and the brain was removed and immediately frozen on dry ice. To 100 μl plasma 10 μl internal standard (1.0 pmol of a compound with solubility and ionization properties similar to test compounds) was added and extracted three times with 500 μl dichloromethane. […]
parameter_measured: concentration at 0.5 h

Lookup: Given the molecule C[C@H](OC(=O)N[C@@H]1CN2CCC1CC2)c1ccccc1F [A-1] , what is its reported concentration at 0.5 h?
Found: 635 pmol/mL

====

Assay: Oral bioavailability and brain penetration in mice
Format: in vivo
Details: male, OF1/IC, mouse, plasma, po, 30 μmol/kg p.o., 1 hour, read-out: Plasma (pmoles/ml ± SD)
parameter_measured: concentration at 1 h (pmol/mL)
Could you give me the number in pmol/mL? Just the number is fine.

Lookup: Given the compound `C[C@H](OC(=O)N[C@@H]1CN2CCC1CC2)c1ccccc1F` , what is its reported concentration at 1 h?
Found: 685

====

Molecular target: human neuronal nAChR α4β2 (Homo sapiens, UniProt P17787+P43681)
Sequence (P43681 29-627 limits assumed): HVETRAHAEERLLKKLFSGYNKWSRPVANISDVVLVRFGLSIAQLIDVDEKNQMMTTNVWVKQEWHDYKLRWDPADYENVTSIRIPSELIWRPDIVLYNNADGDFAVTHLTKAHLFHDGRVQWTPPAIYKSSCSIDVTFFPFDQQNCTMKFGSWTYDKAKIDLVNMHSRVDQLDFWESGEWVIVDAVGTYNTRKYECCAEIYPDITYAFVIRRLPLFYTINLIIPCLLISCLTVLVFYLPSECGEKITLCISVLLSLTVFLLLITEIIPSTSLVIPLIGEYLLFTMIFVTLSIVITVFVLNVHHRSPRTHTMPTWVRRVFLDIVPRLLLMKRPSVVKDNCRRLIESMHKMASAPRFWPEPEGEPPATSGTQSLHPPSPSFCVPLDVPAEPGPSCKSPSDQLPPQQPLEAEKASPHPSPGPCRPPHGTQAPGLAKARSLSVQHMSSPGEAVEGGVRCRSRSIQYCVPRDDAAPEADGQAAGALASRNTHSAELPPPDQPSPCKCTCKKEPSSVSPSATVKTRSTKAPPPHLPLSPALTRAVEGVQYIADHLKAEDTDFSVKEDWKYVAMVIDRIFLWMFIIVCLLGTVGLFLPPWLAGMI
Sequence (P17787 26-502): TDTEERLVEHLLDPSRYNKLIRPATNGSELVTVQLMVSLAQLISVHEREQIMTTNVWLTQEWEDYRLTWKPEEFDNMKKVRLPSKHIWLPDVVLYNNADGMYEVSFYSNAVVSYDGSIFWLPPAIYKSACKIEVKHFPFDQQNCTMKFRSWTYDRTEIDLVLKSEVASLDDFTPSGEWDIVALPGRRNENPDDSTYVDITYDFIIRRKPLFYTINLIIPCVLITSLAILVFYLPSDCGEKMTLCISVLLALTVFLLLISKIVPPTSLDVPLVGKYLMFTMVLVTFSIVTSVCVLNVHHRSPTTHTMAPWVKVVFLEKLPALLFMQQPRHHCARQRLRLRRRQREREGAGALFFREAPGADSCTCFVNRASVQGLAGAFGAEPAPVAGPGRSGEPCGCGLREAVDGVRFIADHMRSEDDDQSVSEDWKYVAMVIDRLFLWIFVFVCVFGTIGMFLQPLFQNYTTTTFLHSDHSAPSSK
Experiment: α4β2-nAChR functional assay in human epithelial cell line
parameter_measured: EC50

Lookup: Under human neuronal nAChR α4β2 (Homo sapiens, UniProt P17787+P43681): EC50 value of C[C@H](OC(=O)N[C@@H]1CN2CCC1CC2)c1ccccc1F [A-1] ?
Found: > 100 µM

Source of measurements: patent US20140171448A1
